Here the recorded Kd is given for each entry.
Biological target: T1, EsCas13d, nuclease-dead (Eubacterium siraeum, UniProt B0MS50, R295A;H300A;R849A;H854A)
T1 sequence: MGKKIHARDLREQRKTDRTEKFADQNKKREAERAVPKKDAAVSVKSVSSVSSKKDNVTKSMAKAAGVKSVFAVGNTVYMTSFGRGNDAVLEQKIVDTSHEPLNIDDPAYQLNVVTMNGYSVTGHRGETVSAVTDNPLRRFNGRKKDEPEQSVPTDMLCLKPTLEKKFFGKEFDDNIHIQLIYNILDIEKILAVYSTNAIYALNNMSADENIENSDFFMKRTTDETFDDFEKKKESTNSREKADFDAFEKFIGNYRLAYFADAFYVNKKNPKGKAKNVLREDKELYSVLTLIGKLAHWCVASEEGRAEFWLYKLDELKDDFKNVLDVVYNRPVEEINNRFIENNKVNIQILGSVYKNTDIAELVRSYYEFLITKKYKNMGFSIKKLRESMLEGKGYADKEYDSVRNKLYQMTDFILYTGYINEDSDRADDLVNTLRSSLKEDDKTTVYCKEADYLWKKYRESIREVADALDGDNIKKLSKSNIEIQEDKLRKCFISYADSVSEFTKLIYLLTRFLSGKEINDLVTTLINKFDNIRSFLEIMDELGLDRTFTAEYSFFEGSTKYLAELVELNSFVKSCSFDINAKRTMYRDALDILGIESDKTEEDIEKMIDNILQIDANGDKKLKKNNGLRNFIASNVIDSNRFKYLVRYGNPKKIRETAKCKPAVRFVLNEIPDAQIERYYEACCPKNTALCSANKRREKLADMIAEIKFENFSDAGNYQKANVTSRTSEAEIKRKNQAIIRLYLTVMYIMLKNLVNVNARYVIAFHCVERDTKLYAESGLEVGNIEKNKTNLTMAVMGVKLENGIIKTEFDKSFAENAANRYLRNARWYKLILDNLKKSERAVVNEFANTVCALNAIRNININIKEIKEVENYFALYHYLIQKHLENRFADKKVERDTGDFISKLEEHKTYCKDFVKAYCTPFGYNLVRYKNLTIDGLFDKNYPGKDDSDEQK
Assay: crRNA (strand 1, pre-loaded); Mg2+; 40 mM Tris-HCl pH 7.5, 150 mM NaCl, 6 mM MgCl2, 1 mM DTT, 0.1% Tween-20, 0.2 mg/ml BSA; 25 C; 10 min per concentration, then washed
Conditions: tags: His6-TwinStrep-SUMO cleaved; N-terminal SNAP kept (SNAP-Surface 488); label: 3' end held by stalled T7 RNA polymerase

# count of solved cases: 3
target 2 MT 5'PFS UUG 3'PFS AUC (mixed) RNA 1: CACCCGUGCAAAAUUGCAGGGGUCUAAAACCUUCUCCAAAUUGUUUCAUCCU RNA 2: GGGAAUGGAUCCACAUCUACGAAUUCUUGAGGAUGAAACAAUUUGGAGAAGAUCAGAUCGGAAGAGCACACGU    14.1 nM
target 2 MT 5'PFS UGA 3'PFS UAC (mixed) RNA 1: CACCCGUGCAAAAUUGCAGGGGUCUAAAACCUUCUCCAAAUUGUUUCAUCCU RNA 2: GGGAAUGGAUCCACAUCUACGAAUUCUGAAGGAUGAAACAAUUUGGAGAAGUACAGAUCGGAAGAGCACACGU    9.1 nM
target 2 MT 5'PFS GUC 3'PFS AUG (mixed) RNA 1: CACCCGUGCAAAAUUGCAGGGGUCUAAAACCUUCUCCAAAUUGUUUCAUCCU RNA 2: GGGAAUGGAUCCACAUCUACGAAUUCGUCAGGAUGAAACAAUUUGGAGAAGAUGAGAUCGGAAGAGCACACGU    15.6 nM

Task: Name the recorded Kd for target 2 MT 5'PFS CGG 3'PFS UGU (mixed) RNA 1: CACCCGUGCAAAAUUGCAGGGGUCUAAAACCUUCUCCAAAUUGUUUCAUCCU RNA 2: GGGAAUGGAUCCACAUCUACGAAUUCCGGAGGAUGAAACAAUUUGGAGAAGUGUAGAUCGGAAGAGCACACGU .
Result: 9.3 nM

Task: Similarly, target 3 insA 3' of 3,insC 3' of 2 (mixed) RNA 1: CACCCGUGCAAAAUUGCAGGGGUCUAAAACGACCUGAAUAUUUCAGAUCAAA RNA 2: GGGAAUGGAUCCACAUCUACGAAUUCGUUUUUGAUCUGAAAUAUUCAGGAUCCUGCAGAUCGGAAGAGCACACGU ?
Result: 120 nM

Task: Similarly, target 1 MT 5'PFS GAC 3'PFS UGA (mixed) RNA 1: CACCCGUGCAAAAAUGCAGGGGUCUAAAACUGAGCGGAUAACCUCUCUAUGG RNA 2: GGGAAUGGAUCCACAUCUACGAAUUCGACCCAUAGAGAGGUUAUCCGCUCAUGAAGAUCGGAAGAGCACACGU ?
Result: ~27.2 nM

Task: Similarly, target 3 insA 3' of 8,insC 3' of 8 (mixed) RNA 1: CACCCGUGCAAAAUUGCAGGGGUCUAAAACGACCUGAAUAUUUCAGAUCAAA RNA 2: GGGAAUGGAUCCACAUCUACGAAUUCGUUUUUGAUCUGAAAUAUACUCAGGUCUGCAGAUCGGAAGAGCACACGU ?
Result: 63 nM

Task: Similarly, target 3 A5U (mixed) RNA 1: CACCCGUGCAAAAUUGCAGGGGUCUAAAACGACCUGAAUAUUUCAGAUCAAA RNA 2: GGGAAUGGAUCCACAUCUACGAAUUCGUUUUUGAUCUGAAAUAUUCUGGUCUGCAGAUCGGAAGAGCACACGU ?
Result: 65.5 nM
